# assayedSystem: stromelysin-1 (MMP-3) (Homo sapiens)
# Sequence (P08254 100-477): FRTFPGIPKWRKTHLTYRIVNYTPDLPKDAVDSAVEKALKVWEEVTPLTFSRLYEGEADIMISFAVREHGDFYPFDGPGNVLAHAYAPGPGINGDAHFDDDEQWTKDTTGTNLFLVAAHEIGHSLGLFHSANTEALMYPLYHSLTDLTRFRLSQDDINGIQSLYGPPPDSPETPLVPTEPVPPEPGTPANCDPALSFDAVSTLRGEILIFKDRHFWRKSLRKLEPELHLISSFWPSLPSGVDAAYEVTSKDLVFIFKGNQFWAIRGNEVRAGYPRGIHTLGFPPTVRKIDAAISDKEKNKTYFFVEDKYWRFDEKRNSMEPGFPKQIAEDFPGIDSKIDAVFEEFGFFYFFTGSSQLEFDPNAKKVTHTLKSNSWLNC
pKi: −log10 of the molar value.
Parameter pKi: see the listing below.

Known results for molecules:
[[record]]
molecule = "CNC(=O)[C@@H](NC(=O)[C@H](CCCc1ccccc1)[C@H](C)N(O)C=O)C(C)(C)C [Example 1]"
observedmeasurement = "6.30 to 7.30"

[[record]]
molecule = "CNC(=O)[C@@H](NC(=O)[C@H](CCCCCc1ccccc1)[C@H](C)N(O)C=O)C(C)(C)C [Example 61]"
observedmeasurement = "7.30 to 8.30"

[[record]]
molecule = "CNC(=O)[C@@H](NC(=O)[C@H](CCCc1ccc(C)cc1)[C@H](C)N(O)C=O)C(C)(C)C [Example 52]"
observedmeasurement = "7.30 to 8.30"

[[record]]
molecule = "CNC(=O)[C@@H](NC(=O)[C@H](CCCc1cccs1)[C@H](C)N(O)C=O)C(C)(C)C [Example 3]"
observedmeasurement = "6.30 to 7.30"

[[record]]
molecule = "CNC(=O)[C@@H](NC(=O)[C@H](CCCc1ccc(Cl)cc1)[C@H](C)N(O)C=O)C(C)(C)C [Example 2]"
observedmeasurement = "7.30 to 8.30"


Shift focus to the following entry.
Fill in: pKi of C[C@@H]([C@@H](CCCc1ccc(Cl)cc1)C(=O)N[C@H](C(=O)NCc1ccccn1)C(C)(C)C)N(O)C=O [Example 20] is ___ 6.30 to 7.30

----------
Entries and their measured pKi follow.
# assayedSystem: TNFα converting enzyme (membrane preparation from MonoMac 6 cells) (Homo sapiens)
# Construct: Membrane preparation from MonoMac 6 cells; endogenous in cells; host or cells: MonoMac 6 cells (membrane preparation, subfractionated extract)
# Sequence (P78536 215-824): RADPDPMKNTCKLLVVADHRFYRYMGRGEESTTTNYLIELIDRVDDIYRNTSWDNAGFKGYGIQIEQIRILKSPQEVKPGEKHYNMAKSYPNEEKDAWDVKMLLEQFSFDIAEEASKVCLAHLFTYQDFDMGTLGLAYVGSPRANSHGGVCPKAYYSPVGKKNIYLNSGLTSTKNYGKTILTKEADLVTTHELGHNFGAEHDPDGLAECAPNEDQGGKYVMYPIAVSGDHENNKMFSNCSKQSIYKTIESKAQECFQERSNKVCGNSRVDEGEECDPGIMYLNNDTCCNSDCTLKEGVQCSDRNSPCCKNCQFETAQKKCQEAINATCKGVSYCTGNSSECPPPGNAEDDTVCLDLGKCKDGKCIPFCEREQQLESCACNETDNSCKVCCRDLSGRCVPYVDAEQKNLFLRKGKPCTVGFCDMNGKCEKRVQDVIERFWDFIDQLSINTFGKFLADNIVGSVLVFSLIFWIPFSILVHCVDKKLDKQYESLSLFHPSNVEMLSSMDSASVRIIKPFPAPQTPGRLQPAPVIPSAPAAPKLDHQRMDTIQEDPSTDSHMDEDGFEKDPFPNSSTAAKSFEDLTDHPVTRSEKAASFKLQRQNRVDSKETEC
# assayOverview: TNFα Converting Enzyme Inhibition
# Format: biochemical
# details: MonoMac 6 membrane preparation, 200 nM radiolabeled substrate, pH=7.5, 1 hr; approximate IC50 equivalent to Ki ([S]<<Km); read-out: TNFα Converting Enzyme Ki
pKi: −log10 of the molar value.

[[record]]
structurenotation = "CC(C)[C@@H]([C@@H](CCCc1ccc(Cl)cc1)C(=O)N[C@H](C(=O)NCc1cccnc1)C(C)(C)C)N(O)C=O"
recordedmetric = "pKi"
observedmeasurement = "6.30 to 7.30"

[[record]]
structurenotation = "CNC(=O)[C@@H](NC(=O)[C@H](CCCc1cccs1)[C@H](C)N(O)C=O)C(C)(C)C"
recordedmetric = "pKi"
observedmeasurement = "6.30 to 7.30"

[[record]]
structurenotation = "CNC(=O)[C@@H](NC(=O)[C@H](CCCc1ccc(C)cc1)[C@H](C)N(O)C=O)C(C)(C)C"
recordedmetric = "pKi"
observedmeasurement = "6.30 to 7.30"


Which pKi is reported for this compound? CNC(=O)[C@@H](NC(=O)[C@H](CCCCCc1ccccc1)[C@H](C)N(O)C=O)C(C)(C)C < 6.30

For the compound shown here, CNC(=O)[C@@H](NC(=O)[C@H](CCCc1ccc(Cl)cc1)[C@H](C)N(O)C=O)C(C)(C)C , give the reported pKi. < 6.30

Consider the compound shown here: C[C@@H]([C@@H](CCCc1ccc(Cl)cc1)C(=O)N[C@H](C(=O)NCc1ccccn1)C(C)(C)C)N(O)C=O What is its recorded pKi? < 6.30

Could you tell me which pKi is on file for C[C@@H]([C@@H](CCCc1ccc(Cl)cc1)C(=O)N[C@H](C(=O)NCCCN1CCOCC1)C(C)(C)C)N(O)C=O ? 6.30 to 7.30
